Recorded values, source patent US4782073A.

test description: pKa
Type: physicochemical
condition description: read-out: pV-a
reported endpoint: pKa
Response field accepts a number only; no unit should be typed.

Inquiry: Indicate its recorded pKa; the compound in question is CCC[C@]12CCC(=O)C=C1c1c(cc(OCC(=O)NC#N)c(Cl)c1Cl)C2 [Example 5]
Reply text: 3.65

Inquiry: Recall and state the measured pKa for CCC[C@]12CCC(=O)C=C1c1c(cc(OCC(=O)NS(=O)(=O)CC)c(Cl)c1Cl)C2 [SO2 C2 H5] .
Reply text: 4.1

---

test description: Protein binding (bovine serum albumin)
Format: in vitro ADME
condition description: 4 × 10^-4 M bovine serum albumin
Let's look at some molecules and their measured fraction unbound.
# output: bare number, no unit

CCC[C@]12CCC(=O)C=C1c1c(cc(OCC(=O)N[C@@H](Cc3c[nH]cn3)C(=O)O)c(Cl)c1Cl)C2    0.079
CCC[C@]12CCC(=O)C=C1c1c(cc(OCC(=O)N[C@@H](Cc3ccccc3)C(=O)O)c(Cl)c1Cl)C2    0.057
CCC[C@]12CCC(=O)C=C1c1c(cc(OCC(=O)NC#N)c(Cl)c1Cl)C2    0.016

Pending molecule:
Inquiry: Dear colleague, please send me the reported fraction unbound for `CCC[C@]12CCC(=O)C=C1c1c(cc(OCC(=O)N[C@@H](CO)C(=O)O)c(Cl)c1Cl)C2` when you can.
Reply text: 0.024

---

test description: Distribution between octanol and aqueous buffer at pH 7.4
Type: physicochemical
reported endpoint: logD

Check out these entries, answers already filled in.
CCC[C@]12CCC(=O)C=C1c1c(cc(OCC(=O)N[C@@H](CO)C(=O)O)c(Cl)c1Cl)C2    1.91
CCC[C@]12CCC(=O)C=C1c1c(cc(OCC(=O)NS(C)(=O)=O)c(Cl)c1Cl)C2 [Example 4]    1.97
CCC[C@]12CCC(=O)C=C1c1c(cc(OCC(=O)Nc3nnn[nH]3)c(Cl)c1Cl)C2    1.96

Now let's try a different one.
Inquiry: Return logD (reported value) for this compound: CCC[C@]12CCC(=O)C=C1c1c(cc(OCC(=O)NS(=O)(=O)CC)c(Cl)c1Cl)C2 [SO2 C2 H5]
Reply text: 1.99

---

test description: Protein binding (bovine serum albumin)
Type: in vitro ADME
condition description: 4 × 10^-4 M bovine serum albumin
Catalogue of fraction unbound values
Answer with a bare number; do not write a unit.

CCC[C@]12CCC(=O)C=C1c1c(cc(OCC(=O)N[C@@H](Cc3ccc(O)cc3)C(=O)O)c(Cl)c1Cl)C2    0.022
CCC[C@]12CCC(=O)C=C1c1c(cc(OCC(=O)Nc3nnn[nH]3)c(Cl)c1Cl)C2    0.019
CCC[C@]12CCC(=O)C=C1c1c(cc(OCC(=O)NS(C)(=O)=O)c(Cl)c1Cl)C2    0.028

Inquiry: Identify measured fraction unbound associated with `CCC[C@]12CCC(=O)C=C1c1c(cc(OCC(=O)N[C@H](C(=O)O)C(C)C)c(Cl)c1Cl)C2`
Reply text: 0.03

---

In this section, each of the molecules is paired with its reported pKa.
test description: pKa
Assay type: physicochemical
condition description: read-out: pV-a
Number only, please.

Example molecules with recorded pKa:
CCC[C@]12CCC(=O)C=C1c1c(cc(OCC(=O)NS(C)(=O)=O)c(Cl)c1Cl)C2    4.25
CCC[C@]12CCC(=O)C=C1c1c(cc(OCC(=O)N[C@@H](Cc3ccc(O)cc3)C(=O)O)c(Cl)c1Cl)C2    4.12
CCC[C@]12CCC(=O)C=C1c1c(cc(OCC(=O)N[C@@H](Cc3ccccc3)C(=O)O)c(Cl)c1Cl)C2    4.58
CCC[C@]12CCC(=O)C=C1c1c(cc(OCC(=O)N[C@@H](Cc3c[nH]cn3)C(=O)O)c(Cl)c1Cl)C2    6.9
CCC[C@]12CCC(=O)C=C1c1c(cc(OCC(=O)N[C@H](C(=O)O)C(C)C)c(Cl)c1Cl)C2    4.6
CCC[C@]12CCC(=O)C=C1c1c(cc(OCC(=O)N[C@@H](CO)C(=O)O)c(Cl)c1Cl)C2    4.1

Proceeding to the next molecule to report its pKa.
Inquiry: Tell me pKa reported for `CCC[C@]12CCC(=O)C=C1c1c(cc(OCC(=O)Nc3nnn[nH]3)c(Cl)c1Cl)C2`
Reply text: 3.78

---

test description: Distribution between octanol and aqueous buffer at pH 7.4
Assay type: physicochemical
reported endpoint: logD
Write the value as a bare number.

Inquiry: Report logD for `CCC[C@]12CCC(=O)C=C1c1c(cc(OCC(=O)NC#N)c(Cl)c1Cl)C2`
Reply text: 1.99

---

test description: Distribution between octanol and aqueous buffer at pH 7.4
Format: physicochemical
// values below are reported logD
Answer as a number with no unit attached.

Reference set (3 entries):
CCC[C@]12CCC(=O)C=C1c1c(cc(OCC(=O)N[C@@H](Cc3ccc(O)cc3)C(=O)O)c(Cl)c1Cl)C2    1.99
CCC[C@]12CCC(=O)C=C1c1c(cc(OCC(=O)N[C@@H](Cc3ccccc3)C(=O)O)c(Cl)c1Cl)C2    2
CCC[C@]12CCC(=O)C=C1c1c(cc(OCC(=O)N[C@@H](Cc3c[nH]cn3)C(=O)O)c(Cl)c1Cl)C2    1.95

# input for lookup
Inquiry: Could you please provide reported logD for `CCC[C@]12CCC(=O)C=C1c1c(cc(OCC(=O)N[C@H](C(=O)O)C(C)C)c(Cl)c1Cl)C2` ? Thanks!
Reply text: 2
